Data origin: paper PMC6611404

- Assayed Target: Human 5-HT4R (Homo sapiens, UniProt Q13639)
- Construct: purchased Eurofins HTS110M
- Sequence (Q13639 whole entry): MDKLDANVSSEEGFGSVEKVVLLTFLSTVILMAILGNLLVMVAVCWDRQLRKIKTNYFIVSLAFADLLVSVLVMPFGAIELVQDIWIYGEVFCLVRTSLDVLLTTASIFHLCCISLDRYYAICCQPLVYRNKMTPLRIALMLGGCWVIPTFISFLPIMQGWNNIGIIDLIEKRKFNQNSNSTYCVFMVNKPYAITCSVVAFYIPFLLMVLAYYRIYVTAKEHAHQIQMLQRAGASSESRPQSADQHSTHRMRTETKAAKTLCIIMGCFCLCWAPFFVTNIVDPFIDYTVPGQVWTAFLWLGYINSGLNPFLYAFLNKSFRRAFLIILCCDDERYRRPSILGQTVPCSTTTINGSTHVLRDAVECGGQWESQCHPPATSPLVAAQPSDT
- Experiment Summary: [3H]-GR113808 competition binding on 5-HT4(b) membrane preparations
- Run Conditions: read-out: (h)5-HT4R % inhibition at 10^−6M, 10^−6M; 0.2 nM [3H]-GR113808
Reported inhibition values for the following molecules.

COc1cc(N)c(Cl)cc1C(=O)CCC1CCN(Cc2ccc(F)cc2)CC1 ... 102%
COc1cc(N)c(Cl)cc1C(=O)CCC1CCN(Cc2ccccc2C)CC1 ... 98%
COc1cc(N)c(Cl)cc1C(=O)CCC1CCN(Cc2cc(NC(C)=O)ccc2Br)CC1 ... 96%

Consider the record given below.
Documented inhibition of "COc1cc(N)c(Cl)cc1C(=O)CCC1CCN(Cc2ccccc2Cl)CC1" : 94%

----------
- Assayed Target: Human 5-HT4R (Homo sapiens)
- Construct: purchased Eurofins HTS110M
- Experiment Summary: [3H]-GR113808 competition binding on 5-HT4(b) membrane preparations
- Run Conditions: read-out: (h)5-HT4R % inhibition at 10^−8M, 10^−8M; 0.2 nM [3H]-GR113808
- Procedure: At the end of the incubation, homogenates were filtered through Whatman GF/C filters (Alpha Biotech) presoaked with 0.5% polyethylenimine using a Brandel cell harvester. […] Non-specific binding was evaluated in parallel in the presence of 30 μM serotonin. For some of these compounds, affinity constants were calculated from five-point inhibition curves using the GraphPad Prism 6 software and expressed as Ki ± SD.
Parameter: inhibition

Solved entries:
COc1cc(N)c(Cl)cc1C(=O)CCC1CCN(Cc2ccccc2F)CC1 ... 10%
COc1cc(N)c(Cl)cc1C(=O)CCC1CCN(Cc2cc(N)ccc2F)CC1 ... 18%
COc1cc(N)c(Cl)cc1C(=O)CCC1CCN(Cc2ccccc2O)CC1 ... 10%
COc1cc(N)c(Cl)cc1C(=O)CCC1CCN(Cc2ccccc2C)CC1 ... 9%
COc1cc(N)c(Cl)cc1C(=O)CCC1CCN(Cc2ccccc2Cl)CC1 ... 16%
COc1cc(N)c(Cl)cc1C(=O)CCC1CCN(Cc2ccc(O)cc2)CC1 ... 23%
COc1cccc(CN2CCC(CCC(=O)c3cc(Cl)c(N)cc3OC)CC2)c1 ... 9%
COc1cc(N)c(Cl)cc1C(=O)CCC1CCN(Cc2ccccc2Br)CC1 ... 17%

Query "COc1cc(N)c(Cl)cc1C(=O)CCC1CCN(Cc2ccc(F)cc2)CC1" yields inhibition of 19%

Value of inhibition reported for the compound "COc1cc(N)c(Cl)cc1C(=O)CCC1CCN(Cc2ccccc2OCc2ccccc2)CC1" is 7%

Measured inhibition, "COc1cc(N)c(Cl)cc1C(=O)CCC1CCN(Cc2cccc(Br)c2)CC1" : 5%
